meta.source: ChEMBL document CHEMBL1125849

Experiment: Ratio is IC50 vales of medial perforant path (MPP) to that of lateral perforant path (LPP)
Format: functional
Binary call on Ratio with cut-off 20: strictly below means MET, and equality or higher means NOT MET.

Worked set:
NC1(C(=O)O)CC1CP(=O)(O)O (stereo in doubt; 6) = MET
N[C@@H](CCP(=O)(O)O)C(=O)O = MET
N[C@]1(C(=O)O)CC[C@@H](P(=O)(O)O)C1 = MET
N[C@]1(C(=O)O)CC[C@H](P(=O)(O)O)C1 = NOT MET

Attention now shifts to the item below.
Query :: I'd appreciate it if you could check whether NC1(C(=O)O)CC1CP(=O)(O)O (stereo in doubt; 5) has Ratio smaller than 20.
Result :: NOT MET
